molecular target: T1, Human PD-1 protein with histidine and avi tags (ACRO Biosystems, PD1-H82E4) (human, UniProt Q15116 25-167); test: BLI (Octet Red96e), PD-1 captured on SA sensor, 1:1 local fit
T1 construct: Captured on streptavidin (SA) sensors in the BLI assay; not shown: histidine and avi tags
T1 sequence (Q15116 25-167 limits assumed): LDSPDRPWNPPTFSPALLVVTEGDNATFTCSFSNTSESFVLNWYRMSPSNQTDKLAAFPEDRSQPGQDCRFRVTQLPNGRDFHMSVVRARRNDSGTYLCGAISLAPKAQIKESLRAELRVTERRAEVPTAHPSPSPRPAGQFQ
observation_type: kon (M⁻¹ s⁻¹)
Give the quantity in M⁻¹ s⁻¹, number only.

Dear colleague, I am looking for the recorded kon of the following binder: PR005144 (VHH, Monovalent single-domain (VH) variant of PR002481 with Flag-6His tag) VHH: EVQLVETGGGLIQPGGSLRLSCAASGFNVSFYYMSWVRQAPGKGREWVSIIDKSGSTYYAASVKGRFTISRDNSKNRLYLQMNSLRAEDTAMYYCARATEVREKNGYNYPFNYWGQGTLVTVSS
10000

Dear colleague, I am looking for the recorded kon of the following binder: PR005150 (VHH, Monovalent single-domain (VH) variant of PR002481 with Flag-6His tag) VHH: EVQLVETGGGLIQPGGSLRLSCAASGFNVSSFYMSWVRQAPGKGREWVSIIDKAGSTYYGASVKGRFTISRDNSKNRLYLQMNSLRAEDTAMYYCARATEVREKQGYNYPFNYWGQGTLVTVSS
59000

Dear colleague, I am looking for the recorded kon of the following binder: PR005572 (antibody, human IgG1, V domains shown, no light chain; also called anti-PD1 PR002481Com_32 HCAb hIgG1) VH: EVQLVETGGGLIQPGGSLRLSCAASGFNVAFYYMSWVRQAPGKGREWVSIIDKGGSTYYADSVKGRFTISRDNSKNRLYLQMNSLRAEDTAMYYCARATEVREKQGYNYPFNYWGQGTLVTVSS
12900

Dear colleague, I am looking for the recorded kon of the following binder: PR005102 (VHH, Monovalent single-domain (VH) variant of PR002481 with Flag-6His tag) VHH: EVQLVETGGGLIQPGGSLRLSCAASGFNVSSHYMSWVRQAPGKGREWVSIIDRGGSTYYADSVKGRFTISRDNSKNRLYLQMNSLRAEDTAMYYCARATAVAEKNGYNYPFNYWGQGTLVTVSS
44800
